- Target system: HLA-B*35:01
- Method: IEDB peptide-MHC binding, purified MHC/competitive/radioactivity; filed as Kd, often an IC50 or EC50 that approximates it; bounds were set here for any values at or beyond the usual limits of such assays
- Settings: source organism: Dengue virus 3 Martinique/1243/1999
Result type: Kd

>>> measured("LPVWLAHKVA")
"6.68 µM"
>>> measured("APTRVVAAEM")
"0.0203 µM"
>>> measured("EPWLKNNQF")
"1.03 µM"

Please fill in: Kd reported for `GPGHEEPVPM` = 7.2 µM

###

- Target system: HLA-B*18:01
- Method: IEDB peptide-MHC binding, purified MHC/direct/fluorescence; filed as Kd, often an IC50 or EC50 that approximates it; bounds were set here for any values at or beyond the usual limits of such assays
- Settings: source organism: Mammarenavirus lassaense
Result type: Kd (nM)
Give just the numeric value; nM need not be written.

Please fill in: Kd reported for `MEGLKLLSL` = 222

###

- Target system: HLA-B*15:01
- Method: IEDB peptide-MHC binding, purified MHC/direct/fluorescence; filed as Kd, often an IC50 or EC50 that approximates it; bounds were set here for any values at or beyond the usual limits of such assays
- Settings: source organism: Yersinia pestis
Result type: pKd
// pKd here means minus log10 of the molar concentration (mol/L)

Please fill in: pKd reported for `LLAALFHDI` = 5.61

###

- Target system: HLA-C*12:03
- Method: IEDB peptide-MHC binding, purified MHC/direct/fluorescence; filed as Kd, often an IC50 or EC50 that approximates it; bounds were set here for any values at or beyond the usual limits of such assays
- Settings: source organism: West Nile virus
Result type: pKd
// pKd here means minus log10 of the molar concentration (mol/L)

Please fill in: pKd reported for `SLYAVTTAV` = 7.57

###

- Target system: HLA-B*27:20
- Method: IEDB peptide-MHC binding, purified MHC/competitive/fluorescence; filed as Kd, often an IC50 or EC50 that approximates it; bounds were set here for any values at or beyond the usual limits of such assays
- Settings: source organism: Yersinia pseudotuberculosis IP 31758
pKd: −log10 of the molar value.
Result type: pKd

GET /values?item= `FQWWRSHPL` &system= HLA-B*27:20 returns pKd: ≥ 10.00

###

- Target system: HLA-B*57:01
- Method: IEDB peptide-MHC binding, purified MHC/competitive/fluorescence; filed as Kd, often an IC50 or EC50 that approximates it; bounds were set here for any values at or beyond the usual limits of such assays
- Settings: source organism: Mycobacterium tuberculosis variant bovis BCG str. Pasteur 1173P2
pKd: −log10 of the molar value.
Result type: pKd

Please fill in: pKd reported for `HLTRVGPYL` = ≤ 4.70

###

- Target system: HLA-A*23:01
- Method: IEDB peptide-MHC binding, purified MHC/direct/fluorescence; filed as Kd, often an IC50 or EC50 that approximates it; bounds were set here for any values at or beyond the usual limits of such assays
- Settings: source organism: Salmonella enterica subsp. enterica serovar Berta
pKd: −log10 of the molar value.
Result type: pKd

GET /values?item= `HQDDGQPRL` &system= HLA-A*23:01 returns pKd: ≤ 4.70

###

- Target system: HLA-B*40:01
- Method: IEDB peptide-MHC binding, purified MHC/direct/fluorescence; filed as Kd, often an IC50 or EC50 that approximates it; bounds were set here for any values at or beyond the usual limits of such assays
- Settings: source organism: Salmonella enterica
pKd: −log10 of the molar value.
Result type: pKd

>>> measured("RKAGVNQAK")
"≤ 4.70"

From here, focus on the item given below.
GET /values?item= `MGKTITDVK` &system= HLA-B*40:01 returns pKd: ≤ 4.70

###

- Target system: HLA-B*08:01
- Method: IEDB peptide-MHC binding, purified MHC/direct/fluorescence; filed as Kd, often an IC50 or EC50 that approximates it; bounds were set here for any values at or beyond the usual limits of such assays
- Settings: source organism: Vibrio cholerae V52
pKd: −log10 of the molar value.
Result type: pKd

Please fill in: pKd reported for `AADFPGIAR` = ≤ 4.70

###

- Target system: HLA-A*24:03
- Method: IEDB peptide-MHC binding, purified MHC/direct/fluorescence; filed as Kd, often an IC50 or EC50 that approximates it; bounds were set here for any values at or beyond the usual limits of such assays
- Settings: source organism: Burkholderia mallei ATCC 23344
Result type: Kd

Please fill in: Kd reported for `NVMDPMHGA` = ≥ 20 µM

###

Measured Kd, listed per entry for reference.
- Target system: HLA-B*44:02
- Method: IEDB peptide-MHC binding, purified MHC/competitive/radioactivity; filed as Kd, often an IC50 or EC50 that approximates it; bounds were set here for any values at or beyond the usual limits of such assays
- Settings: source organism: Dengue virus 1 Brazil/97-11/1997
Give just the numeric value; nM need not be written.

Example entries begin here.
>>> measured("GEVGAIALDF")
21.5
>>> measured("KEISSMLNI")
38.9
>>> measured("EENMDVEIW")
82.8

Please fill in: Kd reported for `MEIRPVKEK` = 640

###

- Target system: HLA-A*68:02
- Method: IEDB peptide-MHC binding, purified MHC/direct/fluorescence; filed as Kd, often an IC50 or EC50 that approximates it; bounds were set here for any values at or beyond the usual limits of such assays
- Settings: source organism: Campylobacter jejuni
Result type: Kd

GET /values?item= `WFGHLASDW` &system= HLA-A*68:02 returns Kd: ≥ 20 µM

###

- Target system: HLA-A*24:03
- Method: IEDB peptide-MHC binding, purified MHC/competitive/fluorescence; filed as Kd, often an IC50 or EC50 that approximates it; bounds were set here for any values at or beyond the usual limits of such assays
- Settings: source organism: Bacillus anthracis str. Ames
pKd: −log10 of the molar value.
Result type: pKd

GET /values?item= `VILYFMYRK` &system= HLA-A*24:03 returns pKd: ≤ 4.70

###

- Target system: HLA-A*01:01
- Method: IEDB peptide-MHC binding, purified MHC/competitive/radioactivity; filed as Kd, often an IC50 or EC50 that approximates it; bounds were set here for any values at or beyond the usual limits of such assays
- Settings: source organism: Dengue virus 2 Jamaica/1409/1983
Result type: Kd (µM)
Give just the numeric value; µM need not be written.

>>> measured("NSTSTWVTY")
7.23

GET /values?item= `FTNMEAQLI` &system= HLA-A*01:01 returns Kd: 2.16

###

- Target system: HLA-A*02:01
- Method: IEDB peptide-MHC binding, purified MHC/competitive/fluorescence; filed as Kd, often an IC50 or EC50 that approximates it; bounds were set here for any values at or beyond the usual limits of such assays
- Settings: source organism: Human immunodeficiency virus 1
Result type: Kd (nM)
Give just the numeric value; nM need not be written.

>>> measured("KMGKAGYVT")
323

Please fill in: Kd reported for `ALVEMGHHV` = 334

###

- Target system: HLA-B*44:02
- Method: IEDB peptide-MHC binding, purified MHC/direct/fluorescence; filed as Kd, often an IC50 or EC50 that approximates it; bounds were set here for any values at or beyond the usual limits of such assays
- Settings: source organism: Toxoplasma gondii
pKd: −log10 of the molar value.
Result type: pKd

Please fill in: pKd reported for `AYMDRKSFK` = ≤ 4.70

###

- Target system: HLA-B*45:06
- Method: IEDB peptide-MHC binding, purified MHC/competitive/fluorescence; filed as Kd, often an IC50 or EC50 that approximates it; bounds were set here for any values at or beyond the usual limits of such assays
- Settings: source organism: Shigella flexneri 5 str. 8401
Result type: Kd

Please fill in: Kd reported for `TTIPTNLFR` = ≥ 5 µM

###

- Target system: HLA-A*31:01
- Method: IEDB peptide-MHC binding, purified MHC/direct/fluorescence; filed as Kd, often an IC50 or EC50 that approximates it; bounds were set here for any values at or beyond the usual limits of such assays
- Settings: source organism: Giardia lamblia ATCC 50803
pKd: −log10 of the molar value.
Measured pKd, listed per entry for reference.

>>> measured("KVGVYKMHK")
7.26
>>> measured("DEKPKVMEG")
"≤ 4.70"
>>> measured("YLDMVLAFL")
"≤ 4.70"

From here, focus on the item given below.
Please fill in: pKd reported for `RTDPVIDNI` = ≤ 4.70

###

- Target system: HLA-A*30:02
- Method: IEDB peptide-MHC binding, purified MHC/competitive/radioactivity; filed as Kd, often an IC50 or EC50 that approximates it; bounds were set here for any values at or beyond the usual limits of such assays
- Settings: source organism: Dengue virus 1 Brazil/97-11/1997
Result type: Kd

Please fill in: Kd reported for `KNEHKSTWHY` = 450 nM
